experiment: N,N-Dimethyltryptamine pH-solubility in 0.5M Britton Robinson buffer; type: physicochemical; details: aqueous buffer, thermodynamic from solid, pH 8.91, 25° C., read-out: solubility, Real data
METRIC: solubility (mg/mL)

>>> print(df.to_string())
                 structure  unit_annotation  experimental_value
0  CN(C)CCc1c[nH]c2ccccc12            mg/mL                17.1

====

Test: N,N-Dimethyltryptamine pH-solubility in 0.5M Britton Robinson buffer
Format: physicochemical
Details: aqueous buffer, thermodynamic from solid, pH 6.05, 25° C., read-out: solubility, Real data
Protocol: Prior to adding N,N-dimethyltryptamine, a quantity of NaOH was added to the BR buffer as required to ensure the required pH. The total volume of BR buffer plus required amount of NaOH was 5 ml for each pH tested (pH 4, 5, 6, 7, 8, 9 & 10).
METRIC: solubility

In [3]: df
Out[3]:
                 structure  experimental_value
0  CN(C)CCc1c[nH]c2ccccc12          92.6 mg/mL

====

experiment: N,N-Dimethyltryptamine pH-solubility in 0.5M Britton Robinson buffer; assay type: physicochemical; conditions: aqueous buffer, thermodynamic from solid, pH 8.07, 25° C., read-out: solubility, Real data
METRIC: solubility (mg/mL)

In [3]: df
Out[3]:
                 structure      metric  experimental_value
0  CN(C)CCc1c[nH]c2ccccc12  solubility                88.4

====

assay: N,N-Dimethyltryptamine pH-solubility in 0.5M Britton Robinson buffer; format: physicochemical; details: aqueous buffer, thermodynamic from solid, pH 10.01, 25° C., read-out: solubility, Real data
METRIC: solubility (µg/mL)

In [3]: df
Out[3]:
                 structure  unit_annotation  experimental_value
0  CN(C)CCc1c[nH]c2ccccc12            µg/mL                1140

====

experiment: N,N-Dimethyltryptamine pH-solubility in 0.5M Britton Robinson buffer; type: physicochemical; details: aqueous buffer, thermodynamic from solid, pH 4.05, 25° C., read-out: solubility, Real data
METRIC: solubility (mg/mL)

In [3]: df
Out[3]:
                                   compound  experimental_value
0  CN(C)CCc1c[nH]c2ccccc12 [N,N-Dimethyltryptamine]                 105
